Biological target: T1, human FLT3 (hFLT3) (human, UniProt P36888 27-543)
T1 construct: also called huFlt3; Fms-Like Tyrosine Kinase 3
T1 sequence (looked up): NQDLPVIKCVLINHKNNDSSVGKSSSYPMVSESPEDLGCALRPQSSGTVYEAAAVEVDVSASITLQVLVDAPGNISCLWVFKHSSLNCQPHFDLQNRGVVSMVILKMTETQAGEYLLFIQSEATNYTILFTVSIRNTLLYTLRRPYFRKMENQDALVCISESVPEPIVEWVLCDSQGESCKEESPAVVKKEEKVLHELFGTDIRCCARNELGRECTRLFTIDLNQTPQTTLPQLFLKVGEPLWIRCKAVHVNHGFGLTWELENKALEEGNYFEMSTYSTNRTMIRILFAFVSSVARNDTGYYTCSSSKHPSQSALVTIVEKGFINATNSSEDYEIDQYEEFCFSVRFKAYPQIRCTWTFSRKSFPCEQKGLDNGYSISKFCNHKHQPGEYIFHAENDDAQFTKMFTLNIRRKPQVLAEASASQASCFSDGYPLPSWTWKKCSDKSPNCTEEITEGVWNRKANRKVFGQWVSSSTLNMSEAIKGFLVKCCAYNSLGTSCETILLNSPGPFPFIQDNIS
Assay: SPR (Biacore T200), 37 C; IgG captured on anti-human Fc, hFLT3 as analyte
Description: All experiments were performed on a Biacore T200 surface Plasmon resonance biosensor (GE Lifesciences, Piscataway N.J.). […] The experiments were performed at 37° C. using a running buffer of 10 mM HEPES, 150 mM NaCl, 0.05% (v/v) Tween-20, pH 7.4, 1 mg/mL BSA. […] After the analyte injection, dissociation was monitored for 10 minutes followed by regeneration of all flow cells with three 1-minute injections of 75 mM Phosphoric Acid. […]
recorded endpoint: Kd (nM)
Reply numerically in nM, unit not repeated.

What value of Kd has been reported for the following binder? P1B4 (IgG format) (antibody, V domains shown, IgG format, captured by anti-human Fc) VH: QVQLVQSGAEVKKPGSSVKVSCKASGGVFSRYALSWVRQAPGQGLEWMGGIIPMLGFANYAQKFQGRVTITADESTSTAYMELSSLRSEDTAVYYCATLDFGALDYWGQGTLVTVSS VL: EIVLTQSPGTLSLSPGERATLSCRASQSVPNEQLAWYQQKPGQAPRLLIYDASSRATGIPDRFSGSGSGTDFTLTISRLEPEDFAVYYCQQYGSPPLTFGQGTKVEIK
32
